Test: Plasma pharmacokinetics of CR665 after single IV infusion in human subjects
Details: male, human, plasma, iv, 0.48 mg/kg, MRTint, males, 1 hour IV infusion, geometric mean
Structures can show the parent of a compound that is named as a salt. Non-standard residues stand in square brackets, D forms with d. Residues, ends and D or L forms follow the SMILES beside them. *: point of attachment. NH(4-picolyl) = c1cc(CN*)ccn1; dNle = CCCC[C@@H](N)C(=O)O
MEASUREMENT_LABEL: MRT (min)
Hi! Could you send only the number? It should be in min, unit omitted.

Request: Could you tell me which MRT is on file for CCCC[C@@H](NC(=O)[C@@H](Cc1ccccc1)NC(=O)[C@H](N)Cc1ccccc1)C(=O)N[C@H](CCCNC(=N)N)C(=O)NCc1ccncc1 [CR665, acetate salt] (H-[dF][dF][dNle][dR]-{NH(4-picolyl)}) ?
Result: 38.9
